assay: in vitro; details: human, hela cells, % viability
viability at 28.5 h, 10 µM: recorded values
The answer is to be given in %; state only the numeric part.

Guide cases for viability at 28.5 h, 10 µM, answers given:
COc1nc(NCCN2CCOCC2)nc(Nc2ccccc2)n1 : 102
CC1(C)CC(=O)C=C(C(=O)NCc2c(F)cccc2F)O1 : 91.2
Cc1ccc2c(c1)nc(CNC(=O)NCCCO)n2C : 86.1
CSC(C)CCN1CCn2nc(CNc3cnccn3)cc2C1 (centres unmarked) : 95.5

Continue with the next molecule.
Prompt: Kindly indicate its recorded viability at 28.5 h, 10 µM. Item: CCc1c(C)nc(C)nc1N1CCCn2nc(C(O)C3CC3)cc2C1 (centres unmarked)
Completion: 100

###

assay: in vitro; details: human, hela cells, % viability
Let's look at some compounds and their measured viability at 28.5 h, 10 µM.
Please state the figure in %; there is no need to write the unit.

Examples with their reported viability at 28.5 h, 10 µM follow.
Nc1ccc(-c2cn3ccnc3c(NCc3ccccc3)n2)cc1 : 108
C=CCn1c2ccccc2c2nnc(SCC(=O)OCN3C(=O)c4ccccc4C3=O)nc21 : 106
CNCCOCC(O)CSc1ccccc1 (stereo not drawn) : 100

Prompt: In one line, give reported viability at 28.5 h, 10 µM of the entry CCNC(=O)NC[C@H]1C[C@@H]2CCN1C[C@@H]2c1cc(C2CCCC2)nn1C .
Completion: 93.6

Prompt: Return viability at 28.5 h, 10 µM for the following compound: O=C(NCc1ccsc1)NCC1CCN(c2ccncc2)CC1
Completion: 91.3

Prompt: Input COc1ccc2[nH]c3c(c2c1)CCNC31CCN(C(=O)NC(C)(C)C)CC1 , output reported viability at 28.5 h, 10 µM.
Completion: 97.4

Prompt: State its viability at 28.5 h, 10 µM: O=C(O)c1cc(S(=O)(=O)Nc2ccc3cc(Br)cnc3n2)c(F)cc1Cl
Completion: 92.2

Prompt: Give me measured viability at 28.5 h, 10 µM, please, for this compound: CCOc1ccc(-c2ccnc(NCC3CCCOC3)n2)cc1C(=O)O (stereo not drawn)
Completion: 88.2

Prompt: Supply viability at 28.5 h, 10 µM value. Item: CCc1ccc(Oc2c(CC(=O)O)oc3cc(O)c(CC)cc3c2=O)cc1
Completion: 106

###

test: in vitro; settings: human, hela cells, % viability
Label satisfied when viability at 28.5 h, 10 µM is strictly below 90%; at or above that, label not satisfied.

Prompt: Is viability at 28.5 h, 10 µM strictly under 90% for the entry O=C(c1ccc2c(c1)OCO2)N1CCN(C/C=C/c2ccccc2)CC1 [CBK262639] ?
Completion: not satisfied

Prompt: Consider CCN(C(C)COC)S(=O)(=O)c1cccc(Cl)c1Cl (centres unmarked) [CBK305146] . Does its viability at 28.5 h, 10 µM lie strictly below 90%?
Completion: not satisfied

Prompt: API: query returns whether the molecule falls strictly under 90% in viability at 28.5 h, 10 µM. Query: CCCC/C=C/c1cnc2[nH]c(=O)n([C@H](CO)C(C)C)c2n1 [CBK064970]
Completion: not satisfied

Prompt: Record Cc1cc(NC(=O)C(=O)NCCCN2CCOCC2)ccc1Br [CBK268046] : is its viability at 28.5 h, 10 µM strictly below 90%?
Completion: not satisfied

Prompt: Is 90% strictly greater than the molecule's reported viability at 28.5 h, 10 µM? molecule: O=[N+]([O-])c1cccc(Cn2c(CO)nc3ccccc32)c1 [CBK297515]
Completion: not satisfied

Prompt: Is 90% strictly greater than the molecule's reported viability at 28.5 h, 10 µM? molecule: Cn1ncc2c(NCCN3CCOC3=O)nc(C(C)(C)C)nc21 [CBK307511]
Completion: satisfied

Prompt: State whether 90% exceeds viability at 28.5 h, 10 µM recorded for CC(Nc1ccc(N2CCOCC2)cc1)C(=O)Nc1cccc(C#N)c1 (centres unmarked) [CBK305846] .
Completion: satisfied

Prompt: Check if viability at 28.5 h, 10 µM falls below 90% for Cc1c(C(=O)N(C)C2CCNC2)nnn1-c1ccc2ncccc2c1 (centres unmarked) [CBK304698] .
Completion: not satisfied

Prompt: Is it true that viability at 28.5 h, 10 µM reported for Cc1[nH]c2ccccc2c1C(=O)CSc1n[nH]c(N)n1 [CBK268056] is less than 90%?
Completion: not satisfied

Prompt: hey, is viability at 28.5 h, 10 µM for COc1cccc(C(=O)COC(=O)c2cc(-c3ccccc3)nc3ccc(Br)cc23)c1 [CBK265143] lower than 90% or not?
Completion: not satisfied

Prompt: Regarding O=C(c1cc(-c2ccncc2)nc2ccc(Cl)cc12)N1CCN(c2ccc([N+](=O)[O-])cc2)CC1 [CBK267748] , kindly confirm whether its viability at 28.5 h, 10 µM is beneath 90%.
Completion: satisfied

Prompt: Find out if reported viability at 28.5 h, 10 µM for COCCNC(=O)c1cc(C2CC2)nc2c1cnn2C(C)C [CBK306099] is less than 90%
Completion: not satisfied

Prompt: Is viability at 28.5 h, 10 µM of N=c1n(CCCOc2ccc(Br)cc2)c2ccccc2n1CC(N)=O [CBK268786C] strictly below 90%?
Completion: satisfied

Prompt: Identify whether the molecule Cc1ccc(S(=O)(=O)Nc2nc(C)cs2)cc1 [CBK102326] records viability at 28.5 h, 10 µM below 90%.
Completion: not satisfied

Prompt: For this molecule, is viability at 28.5 h, 10 µM lower than 90%? Cc1ccc(N(CC(=O)Nc2ccc(Br)c(C)c2)S(=O)(=O)c2ccc(C)cc2)cc1 [CBK264038]
Completion: not satisfied

Prompt: A record lists Cc1nc(CN2C(=O)CC(Cc3cnn(C)c3)C2=O)nc2ccccc12 (centres unmarked) [CBK305415] . Is its viability at 28.5 h, 10 µM below 90%?
Completion: not satisfied

Prompt: Quick check: does CCOC(=O)C1CCN(C(=O)CCn2ccc3ccncc32)CC1 [CBK284720] have viability at 28.5 h, 10 µM under 90%?
Completion: satisfied

Prompt: Determine whether this molecule shows viability at 28.5 h, 10 µM lower than 90% (ties excluded): CCc1nc2ccc(C(=O)NCCc3c[nH]c4ccccc34)cn2c1N(C)Cc1ccncc1 [CBK145636]
Completion: not satisfied

###

experiment: in vitro; conditions: human, hela cells, % viability
A collection of compounds and their measured viability at 28.5 h, 10 µM
Just the number please, in %, no unit attached.

Field: example entries. Status: answers known.
COC(=O)CCCC(=O)n1c(=O)n(Cc2ccc(S(C)(=O)=O)cc2)c2ccccc21 [CBK106538] : 105
COC(=O)c1ccc2cccnc2c1O [CBK017876] : 90.9
CC(=O)Nc1cccc(/C(C)=N/NC(=O)c2ccc(CN3CCOCC3)cc2)c1 [CBK262746] : 95.4
COC(=O)c1cc(OC)c(OC)cc1NC(=O)C1CCC1C(=O)O (stereo not drawn) [CBK057084] : 82.5
CCOc1ccccc1NC(=O)Nc1ncccc1C [CBK267140] : 85.3

// below: viability at 28.5 h, 10 µM requested for another compound
Prompt: Return viability at 28.5 h, 10 µM for the following compound: CC(=O)N1CC(C(=O)N2CC3(CCCC3)c3c(F)cccc32)C1 [CBK306292]
Completion: 97.6

###

assay: in vitro; conditions: human, hela cells, % viability
quantity-kind: viability at 28.5 h, 10 µM (%)
Number in %, nothing else.

Look over these answered cases.
O=C(c1ccccc1Br)N1CCN(c2ccc([N+](=O)[O-])c(NCc3cccnc3)c2)CC1 : 100
COC(=O)c1ccc(NC(=S)NC(=O)c2cncc(Br)c2)cc1 : 87.9
Nc1nn(S(=O)(=O)c2cccc3nsnc23)cc1-c1ccc(Br)cc1 : 107
Cn1c(Cc2ccccc2)nnc1Sc1ccc(C(=O)O)cc1[N+](=O)[O-] : 99.6
O=C(O)C1CC=CCC1C(=O)Nc1ccc(S(=O)(=O)N2CCCc3ccccc32)cc1 (stereo not drawn) : 94.8
COc1ccc(C(NC(=O)[C@H]2CCCN2C(=O)Cc2cccs2)c2ccccc2C)cn1 (stereo partly drawn) : 87
CCCC/C=C/c1nccnc1NCc1ccc(C(F)(F)F)cc1 : 94.4
CC(C)c1ccc(/C=C/C(=O)NC(=S)Nc2cccc(C(=O)O)c2)cc1 : 94.3

Prompt: Input CCCCN1CCN(S(=O)(=O)c2ccc(Br)cc2)CC1 , output reported viability at 28.5 h, 10 µM.
Completion: 99.1

###

assay: in vitro; settings: human, hela cells, % viability
Returns: string. Value is T if measured viability at 28.5 h, 10 µM is below 90%, and F if it is greater than or equal to it.

CCOC(=O)C1CSCCN1C(=O)c1ccc(-n2nc(C)cc2C)cc1 (stereo not drawn) : T
Cc1c(C(=O)O)sc(S(=O)(=O)N2CCN(C(=O)Cc3ccccc3)CC2)c1C(=O)O : F
CC(C)NC(=O)N1Cc2nc[nH]c2C[C@H]1c1nc(-c2ccccc2)no1 : T

Prompt: Lab note: viability at 28.5 h, 10 µM threshold 90%. Does this compound come in strictly under it? Cc1ccc(C)c(S(=O)(=O)Nc2ccc(O)c(Sc3nnc[nH]3)c2)c1
Completion: F

Prompt: Consider COc1ccc([N+](=O)[O-])cc1NC(=O)c1cc(Cl)c(OC)c(Cl)c1 . Does its viability at 28.5 h, 10 µM lie strictly below 90%?
Completion: T

Prompt: Dear reviewer, please state whether Nc1ncnc2c1cnn2[C@H]1C[C@@H](O)[C@@H](CO)O1 has viability at 28.5 h, 10 µM strictly beneath 90%.
Completion: F

Prompt: Given the entry O=C(/C=C/c1ccccc1)ONC(=O)c1ccc(Cl)cc1 , would its reported viability at 28.5 h, 10 µM be below 90%?
Completion: F

Prompt: Report whether reported viability at 28.5 h, 10 µM is lower than 90% (strictly) for O=C(NC1CC1)[C@H]1C=CCN1S(=O)(=O)c1cccc(F)c1
Completion: F
